- TGT: Estrogen receptor (Rattus norvegicus) (UniProt P06211+Q62986)
- ASSAY_INFO: Binding affinity to estrogen receptor
- Assay type: protein assay
PROPERTY_MEASURED: relative binding affinity (RBA)

Worked cases, relative binding affinity (RBA) given:
>  <COMPOUND>
CC[C@@](C)(c1ccc(O)cc1)[C@H](CCCCCl)c1ccc(O)cc1 (relative stereo)

>  <relative binding affinity (RBA)>
1.5

$$$$
>  <COMPOUND>
C=CCCC[C@H](c1ccc(O)cc1)[C@@](C)(CC)c1ccc(O)cc1 (relative stereo)

>  <relative binding affinity (RBA)>
1

$$$$
>  <COMPOUND>
CC[C@@](C)(c1ccc(O)cc1)[C@H](CCCC(N)=O)c1ccc(O)cc1

>  <relative binding affinity (RBA)>
0.9

$$$$

A = CC[C@@](C)(c1cc(Br)c(O)c(Br)c1)[C@H](CCCCO)c1ccc(O)c(Br)c1
B = CC[C@@](C)(c1ccc(O)cc1)[C@H](CCCC(=O)NC)c1ccc(O)cc1
C = CC[C@@](C)(c1ccc(O)cc1)[C@H](CCCCOC(C)=O)c1ccc(O)cc1
(Q) Hello, I need these entries ordered by relative binding affinity (RBA), highest reading first. Thanks! Provide the ranking by listing each label in its place in the requested order.
(A) C, B, A
(C: 1, B: 0.2, A: 0.1)
